# system-under-test: Histone-arginine methyltransferase CARM1 (Homo sapiens, UniProt Q86X55)
# Sequence (Q86X55 whole entry): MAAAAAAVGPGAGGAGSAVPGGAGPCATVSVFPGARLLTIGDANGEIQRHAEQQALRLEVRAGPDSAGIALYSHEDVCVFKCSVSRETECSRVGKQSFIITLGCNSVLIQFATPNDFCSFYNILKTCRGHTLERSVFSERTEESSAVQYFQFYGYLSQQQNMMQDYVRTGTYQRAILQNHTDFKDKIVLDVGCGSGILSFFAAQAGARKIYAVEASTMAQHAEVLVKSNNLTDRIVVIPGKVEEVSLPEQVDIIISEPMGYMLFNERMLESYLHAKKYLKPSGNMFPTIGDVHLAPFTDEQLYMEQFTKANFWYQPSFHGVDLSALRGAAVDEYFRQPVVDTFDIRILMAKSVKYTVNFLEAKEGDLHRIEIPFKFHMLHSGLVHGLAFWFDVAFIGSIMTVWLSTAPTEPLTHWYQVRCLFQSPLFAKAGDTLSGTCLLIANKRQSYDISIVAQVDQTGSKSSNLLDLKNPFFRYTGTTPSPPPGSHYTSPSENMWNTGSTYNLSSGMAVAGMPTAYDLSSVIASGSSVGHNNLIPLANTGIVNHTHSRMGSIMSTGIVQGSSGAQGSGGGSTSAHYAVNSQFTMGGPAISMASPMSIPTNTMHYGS
Values of log10 of IC50 for Histone-arginine methyltransferase CARM1 (Homo sapiens, UniProt Q86X55), collected from a number of published sources:
Lab note - IC50 converted to log10 from values in nM.

Qu. Request the reported log10 of IC50 associated with CNCCNCc1cccc(-c2nc(-c3c(C)noc3C)c(C)c(N3CCN(S(C)(=O)=O)CC3)n2)c1
Ans. -0.11

Qu. Please report the recorded log10 of IC50 for CNCCNCc1cccc(-c2nc(NC3CCOCC3)c(C)c(-c3cccnc3)n2)c1 .
Ans. -0.04

Qu. Report log10 of IC50 for CNCCN1CC(NCc2cccc(Br)c2)C1 please.
Ans. 1.83

Qu. Need log10 of IC50, item CNCCNCc1cccc(-c2nc(NC3CCOCC3)c(C)c(-c3c(C)noc3C)n2)c1
Ans. 0.21

Qu. Would you kindly share the measured log10 of IC50 for CNCCNCc1cccc(-c2nc(NC3CCOCC3)c(C)c(-c3cncnc3)n2)c1 ?
Ans. 0.63

Qu. Entry C[C@H](N)C(=O)NCc1cccc(-n2nc(C(F)(F)F)cc2-c2nnc(-c3cccc4ncsc34)o2)c1 : reported log10 of IC50 = ?
Ans. 1.60

Qu. # query: log10 of IC50 of entry CN(C)C(=O)c1cc(C(F)(F)F)nn1-c1cccc(CNC(=O)CN)c1
Ans. 4.47

---

# system-under-test: Histone-arginine methyltransferase CARM1 (Homo sapiens)
# Sequence (Q86X55 whole entry): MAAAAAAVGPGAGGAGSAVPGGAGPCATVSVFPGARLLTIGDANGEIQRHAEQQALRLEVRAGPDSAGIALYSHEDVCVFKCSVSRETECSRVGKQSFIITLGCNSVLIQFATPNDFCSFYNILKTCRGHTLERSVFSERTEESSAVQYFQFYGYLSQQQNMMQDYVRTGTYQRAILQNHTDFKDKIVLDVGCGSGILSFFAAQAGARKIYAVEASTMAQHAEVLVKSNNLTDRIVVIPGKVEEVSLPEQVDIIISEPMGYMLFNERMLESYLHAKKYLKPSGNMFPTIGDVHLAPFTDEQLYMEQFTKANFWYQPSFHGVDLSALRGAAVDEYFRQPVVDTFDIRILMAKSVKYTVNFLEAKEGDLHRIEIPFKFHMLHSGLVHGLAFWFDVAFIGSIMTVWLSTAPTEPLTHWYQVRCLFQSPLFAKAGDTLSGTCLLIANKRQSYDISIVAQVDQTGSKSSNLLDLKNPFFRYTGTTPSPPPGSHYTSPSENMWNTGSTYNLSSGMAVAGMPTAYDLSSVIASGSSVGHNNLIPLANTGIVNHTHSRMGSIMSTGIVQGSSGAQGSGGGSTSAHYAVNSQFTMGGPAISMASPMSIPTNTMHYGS
// cross-study collection: pIC50 for Histone-arginine methyltransferase CARM1 (Homo sapiens)
Entry type: numeric. Quantity: pIC50, the -log10 of concentration in molar units.

These recorded examples may help you get a feel for the data.
>  <compound-string>
C[C@H](N)C(=O)NCc1cccc(-n2nc(C(F)(F)F)cc2C(=O)N(C)Cc2ccccc2)c1

>  <pIC50>
5.47

$$$$
>  <compound-string>
CS(=O)(=O)c1ccccc1-c1ccc(NC(=O)c2cc(C(F)(F)F)nn2-c2cccc(CNC(=O)CCN)c2)c(F)c1

>  <pIC50>
4.77

$$$$
>  <compound-string>
CNCCN1CCC(NCc2cccc(C(F)(F)F)c2)CC1

>  <pIC50>
6.52

$$$$
>  <compound-string>
CNCCN1CC(NCc2cccc(F)c2)C1

>  <pIC50>
6.89

$$$$
>  <compound-string>
CNCCNCc1cccc(-c2nc(NC3CCOCC3)c(C)c(-c3cccc4[nH]ccc34)n2)c1

>  <pIC50>
7.93

$$$$
>  <compound-string>
NCC(=O)NCc1cccc(-n2nc(C(F)(F)F)cc2C(=O)Nc2ccc(-c3ccccc3)cc2)c1

>  <pIC50>
5.85

$$$$

Qu. # value lookup — system Histone-arginine methyltransferase CARM1 (Homo sapiens), readout pIC50, item CNCCNCc1cccc(-c2nc(NC3CCOCC3)c(C)c(-c3cc4ccccc4s3)n2)c1
Ans. 7.67

Qu. Kindly state the measured pIC50 obtained for CNCCNCc1cccc(-c2nc(-c3c(C)noc3C)c(C)c(N3Cc4cccnc4C3)n2)c1 with Histone-arginine methyltransferase CARM1 (Homo sapiens).
Ans. 8.95

---

IC50 for Histone-arginine methyltransferase CARM1 (Homo sapiens), merged from several publications.
# system-under-test: Histone-arginine methyltransferase CARM1 (Homo sapiens)
# Sequence (Q86X55 whole entry): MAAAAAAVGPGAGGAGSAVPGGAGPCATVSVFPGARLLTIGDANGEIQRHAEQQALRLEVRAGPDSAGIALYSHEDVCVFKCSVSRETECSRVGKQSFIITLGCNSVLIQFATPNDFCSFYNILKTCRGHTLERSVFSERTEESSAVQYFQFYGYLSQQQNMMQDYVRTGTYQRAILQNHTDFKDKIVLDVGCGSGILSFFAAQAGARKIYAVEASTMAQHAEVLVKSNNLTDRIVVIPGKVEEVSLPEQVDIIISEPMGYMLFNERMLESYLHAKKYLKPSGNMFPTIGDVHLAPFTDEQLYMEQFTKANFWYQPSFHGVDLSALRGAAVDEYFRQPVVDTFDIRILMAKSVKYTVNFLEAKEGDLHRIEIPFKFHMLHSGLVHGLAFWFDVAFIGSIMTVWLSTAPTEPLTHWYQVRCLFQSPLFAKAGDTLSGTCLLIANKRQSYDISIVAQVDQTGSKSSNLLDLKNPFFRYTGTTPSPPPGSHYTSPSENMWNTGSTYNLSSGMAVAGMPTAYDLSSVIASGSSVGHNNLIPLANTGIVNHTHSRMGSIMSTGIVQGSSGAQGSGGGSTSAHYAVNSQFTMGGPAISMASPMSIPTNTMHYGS

>  <molecule>
CNCC(=O)NCc1cccc(-n2nc(C(F)(F)F)cc2C(=O)Nc2ccc(-c3ccccc3S(C)(=O)=O)cc2F)c1

>  <IC50>
> 30000 nM

$$$$
>  <molecule>
NCC(=O)NCc1cccc(-n2nc(C(F)(F)F)cc2C(=O)Nc2ccccc2)c1

>  <IC50>
7700 nM

$$$$
>  <molecule>
N#Cc1c(Br)cccc1NC(=O)CCN1CCc2ccccc2C1

>  <IC50>
> 200000 nM

$$$$

Qu. Which IC50 reading was recorded for the molecule CNCCNCc1cccc(-c2nc(NC3CCOCC3)c(C)c(-c3ccc(OC)cc3)n2)c1 ?
Ans. 26.9 nM

Qu. Data request, read-out IC50, for CN(CCN)Cc1ccccc1Sc1ccccc1Cl
Ans. 63 nM

Qu. # get_value(readout='IC50', item= CNCCN1CC(NCc2cccc(C(F)(F)F)c2)C1 )
Ans. 94 nM

---

# system-under-test: Histone-arginine methyltransferase CARM1 (Homo sapiens, UniProt Q86X55)
# Sequence (Q86X55 whole entry): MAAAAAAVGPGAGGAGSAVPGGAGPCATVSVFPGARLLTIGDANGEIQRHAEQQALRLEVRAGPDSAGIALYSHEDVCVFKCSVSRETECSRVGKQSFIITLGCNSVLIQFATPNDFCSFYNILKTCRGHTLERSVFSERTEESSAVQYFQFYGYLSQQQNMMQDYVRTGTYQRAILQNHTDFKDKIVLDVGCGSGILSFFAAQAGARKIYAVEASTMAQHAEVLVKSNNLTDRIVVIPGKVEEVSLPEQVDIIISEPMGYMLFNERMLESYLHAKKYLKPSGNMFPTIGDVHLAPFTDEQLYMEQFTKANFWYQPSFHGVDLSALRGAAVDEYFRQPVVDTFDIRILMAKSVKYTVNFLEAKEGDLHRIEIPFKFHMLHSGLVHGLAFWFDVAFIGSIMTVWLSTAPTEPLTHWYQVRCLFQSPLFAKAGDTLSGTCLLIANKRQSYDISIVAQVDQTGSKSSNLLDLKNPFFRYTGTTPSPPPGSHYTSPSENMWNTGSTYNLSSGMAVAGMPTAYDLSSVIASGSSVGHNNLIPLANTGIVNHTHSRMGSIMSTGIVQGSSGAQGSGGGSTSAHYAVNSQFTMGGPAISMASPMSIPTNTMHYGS
Compiled record: pIC50 values for Histone-arginine methyltransferase CARM1 (Homo sapiens, UniProt Q86X55) across several sources.
// scale note: pIC50 = -log10(conc_M); give the bare number

>  <compound-string>
CNCCNCc1cccc(-c2nc(NC3CCOCC3)c(C)c(-c3ccnn3C)n2)c1

>  <observed>
8.53

$$$$

Qu. Entry under review: C=CC(=O)N(C)c1nc(NC2CCN(C)CC2)c2cc(OC)c(OCCCN3CCCC3)cc2n1 . Reported pIC50?
Ans. 5.18

Qu. Fill blank: measured pIC50 of the compound NCCCN(CCCNc1ccccn1)C[C@@H]1O[C@H](n2cnc3c(N)ncnc32)[C@@H](O)[C@H]1O is ____.
Ans. 7.05

Qu. // pIC50 lookup, key: CNCCNCc1cccc(-c2nc(NC3CCOCC3)c(C)c(-c3ccccn3)n2)c1
Ans. 8.21

Qu. Item CNCCNCc1cccc(-c2nc(-c3c(C)noc3C)c(C)c(N3CCS(=O)(=O)CC3)n2)c1 has what recorded pIC50?
Ans. 8.61

Qu. pIC50 for C[C@H](N)C(=O)NCc1cccc(-n2nc(C(F)(F)F)cc2C(=O)Nc2ccccc2)c1 ?
Ans. 5.88
